Form field: Ratio EC50 (one value per entry).
- System: Hepatitis C virus
- ASSAY TEXT: Resistance index, ratio of EC50 for Hepatitis C virus subtype 1b harboring protease D168V mutant to EC50 for wild type Hepatitis C virus subtype 1b
- Type: functional, Hepacivirus hominis, genotype 1b

{"columns": ["STRUCTURE SMILES STRING", "TEST SYSTEM", "Ratio EC50"],
 "data": [
  ["CCN(C(=O)N[C@H]1CCCCC/C=C\\[C@@H]2C[C@@]2(C(=O)NS(=O)(=O)C2CC2)NC(=O)[C@@H]2C[C@@H](Oc3cc(-c4nc(C5CC5)cs4)nc4c(C)c(OC)ccc34)CN2C1=O)C(C)C", "Hepatitis C virus", "<1000"],
  ["COc1ccc2c(O[C@@H]3C[C@H]4C(=O)N[C@]5(C(=O)NS(=O)(=O)C6CC6)C[C@H]5/C=C\\CCCCC[C@H](NC(=O)N5CCC5)C(=O)N4C3)cc(-c3nc(C(C)C)cs3)nc2c1C", "Hepatitis C virus", "<1000"],
  ["COc1ccc2c(O[C@@H]3C[C@H]4C(=O)N[C@]5(C(=O)NS(=O)(=O)C6CC6)C[C@H]5/C=C\\CCCCC[C@H](NC(=O)N5CC(F)(F)C5)C(=O)N4C3)cc(-c3nc(C(C)C)cs3)nc2c1C", "Hepatitis C virus", "<1000"],
  ["COc1ccc2c(O[C@@H]3C[C@H]4C(=O)N[C@]5(C(=O)NS(=O)(=O)C6CC6)C[C@H]5/C=C\\CCCCC[C@H](NC(=O)N(C)C(C)C)C(=O)N4C3)cc(-c3nc(C4CC4)cs3)nc2c1C", "Hepatitis C virus", "<1000"],
  ["CCC[C@H](NC(=O)[C@@H]1[C@H]2CCC[C@H]2CN1C(=O)[C@@H](NC(=O)[C@@H](NC(=O)c1cnccn1)C1CCCCC1)C(C)(C)C)C(=O)C(=O)NC1CC1", "Hepatitis C virus", 6],
  ["CC(C)(C)OC(=O)N[C@H]1CCCCC/C=C\\[C@@H]2C[C@@]2(C(=O)NS(=O)(=O)C2CC2)NC(=O)[C@@H]2C[C@@H](OC(=O)N3Cc4cccc(F)c4C3)CN2C1=O", "Hepatitis C virus", 10],
  ["COc1ccc2c(O[C@@H]3C[C@H]4C(=O)N[C@]5(C(=O)NS(=O)(=O)C6CC6)C[C@H]5/C=C\\CCCCC[C@H](NC(=O)N(C)C(C)(C)C)C(=O)N4C3)cc(-c3nc(C4CC4)cs3)nc2c1C", "Hepatitis C virus", "<1000"]
]}

====

- ASSAY TEXT: AUC in rat at 5 mg/kg, po
- Type: ADME, organism-based, Plasma
- Parameters: dose 5 mg/kg, route oral
- RUN CONDITIONS: plasma

{"columns": ["STRUCTURE SMILES STRING", "AUC"],
 "data": [
  ["COc1ccc2c(O[C@@H]3C[C@H]4C(=O)N[C@]5(C(=O)NS(=O)(=O)C6CC6)C[C@H]5/C=C\\CCCCC[C@H](NC(=O)N5CCC5)C(=O)N4C3)cc(-c3nc(C(C)C)cs3)nc2c1C", "40.5 ng·h/mL"],
  ["COc1ccc2c(O[C@@H]3C[C@H]4C(=O)N[C@]5(C(=O)NS(=O)(=O)C6CC6)C[C@H]5/C=C\\CCCCC[C@H](NC(=O)N5CC(F)(F)C5)C(=O)N4C3)cc(-c3nc(C(C)C)cs3)nc2c1C", "69 ng·h/mL"]
]}

====

Form field: log10 of EC50 (one value per entry).
- Test system: Hepatitis C virus
- ASSAY TEXT: Antiviral activity against Hepatitis C virus subtype 1a by stable replicon assay
- Assay type: functional, organism-based, Hepacivirus hominis
METRIC NAME: log10 of EC50 (log10 of the value in nM)

{"columns": ["MOLECULE", "log10 of EC50"],
 "data": [
  ["COc1ccc2c(O[C@@H]3C[C@H]4C(=O)N[C@]5(C(=O)NS(=O)(=O)C6CC6)C[C@H]5/C=C\\CCCCC[C@H](NC(=O)N5CCC(O)CC5)C(=O)N4C3)cc(-c3nc(C(C)C)cs3)nc2c1C", -0.22],
  ["COc1ccc2c(O[C@@H]3C[C@H]4C(=O)N[C@]5(C(=O)NS(=O)(=O)C6CC6)C[C@H]5/C=C\\CCCCC[C@H](NC(N)=O)C(=O)N4C3)cc(-c3nc(C(C)C)cs3)nc2c1C", 0.26],
  ["COc1ccc2c(O[C@@H]3C[C@H]4C(=O)N[C@]5(C(=O)NS(=O)(=O)C6CC6)C[C@H]5/C=C\\CCCCC[C@H](NC(=O)N(C)C(C)C)C(=O)N4C3)cc(-c3nc(C4CC4)cs3)nc2c1C", -0.52],
  ["CCC[C@H](NC(=O)[C@@H]1[C@H]2CCC[C@H]2CN1C(=O)[C@@H](NC(=O)[C@@H](NC(=O)c1cnccn1)C1CCCCC1)C(C)(C)C)C(=O)C(=O)NC1CC1", 2.73],
  ["COc1ccc2c(O[C@@H]3C[C@H]4C(=O)N[C@]5(C(=O)NS(=O)(=O)C6CC6)C[C@H]5/C=C\\CCCCC[C@H](NC(=O)N(C)C(C)(C)C)C(=O)N4C3)cc(-c3nc(C4CC4)cs3)nc2c1C", 0.00],
  ["COc1ccc2c(O[C@@H]3C[C@H]4C(=O)N[C@]5(C(=O)NS(=O)(=O)C6CC6)C[C@H]5/C=C\\CCCCC[C@H](NC(=O)N5CC(F)(F)C5)C(=O)N4C3)cc(-c3nc(C(C)C)cs3)nc2c1C", -0.10],
  ["CCN(CC)C(=O)N[C@H]1CCCCC/C=C\\[C@@H]2C[C@@]2(C(=O)NS(=O)(=O)C2CC2)NC(=O)[C@@H]2C[C@@H](Oc3cc(-c4nc(C(C)C)cs4)nc4c(C)c(OC)ccc34)CN2C1=O", -0.05],
  ["COc1ccc2c(O[C@@H]3C[C@H]4C(=O)N[C@]5(C(=O)NS(=O)(=O)C6CC6)C[C@H]5/C=C\\CCCCC[C@H](NC(=O)N5CCOCC5)C(=O)N4C3)cc(-c3nc(C(C)C)cs3)nc2c1C", -0.52],
  ["COc1ccc2c(O[C@@H]3C[C@H]4C(=O)N[C@]5(C(=O)NS(=O)(=O)C6CC6)C[C@H]5/C=C\\CCCCC[C@H](NC(=O)N5CCC(CO)CC5)C(=O)N4C3)cc(-c3nc(C(C)C)cs3)nc2c1C", -0.15],
  ["COc1ccc2c(O[C@@H]3C[C@H]4C(=O)N[C@]5(C(=O)NS(=O)(=O)C6CC6)C[C@H]5/C=C\\CCCCC[C@H](NC(=O)N5CCN(C6CCCC6)CC5)C(=O)N4C3)cc(-c3nc(C(C)C)cs3)nc2c1C", -0.30],
  ["COc1ccc2c(O[C@@H]3C[C@H]4C(=O)N[C@]5(C(=O)NS(=O)(=O)C6CC6)C[C@H]5/C=C\\CCCCC[C@H](NC(=O)N5CC6CCCC6C5)C(=O)N4C3)cc(-c3nc(C(C)C)cs3)nc2c1C (stereo partly drawn)", -0.52],
  ["COc1ccc2c(O[C@@H]3C[C@H]4C(=O)N[C@]5(C(=O)NS(=O)(=O)C6CC6)C[C@H]5/C=C\\CCCCC[C@H](NC(=O)N5CCC(c6ccccc6)CC5)C(=O)N4C3)cc(-c3nc(C(C)C)cs3)nc2c1C", 0.20],
  ["COc1ccc2c(O[C@@H]3C[C@H]4C(=O)N[C@]5(C(=O)NS(=O)(=O)C6CC6)C[C@H]5/C=C\\CCCCC[C@H](NC(=O)N5CCC(CC(=O)O)CC5)C(=O)N4C3)cc(-c3nc(C(C)C)cs3)nc2c1C", 0.34],
  ["COc1ccc2c(O[C@@H]3C[C@H]4C(=O)N[C@]5(C(=O)NS(=O)(=O)C6CC6)C[C@H]5/C=C\\CCCCC[C@H](NC(=O)N5CCCCC5)C(=O)N4C3)cc(-c3nc(C(C)C)cs3)nc2c1C", -0.40],
  ["COc1ccc2c(O[C@@H]3C[C@H]4C(=O)N[C@]5(C(=O)NS(=O)(=O)C6CC6)C[C@H]5/C=C\\CCCCC[C@H](NC(=O)N5CCC(CC(N)=O)CC5)C(=O)N4C3)cc(-c3nc(C(C)C)cs3)nc2c1C", 0.75],
  ["COc1ccc2c(O[C@@H]3C[C@H]4C(=O)N[C@]5(C(=O)NS(=O)(=O)C6CC6)C[C@H]5/C=C\\CCCCC[C@H](NC(=O)N5CCC(N6CCCC6)CC5)C(=O)N4C3)cc(-c3nc(C(C)C)cs3)nc2c1C", -0.22],
  ["CC(C)(C)OC(=O)N[C@H]1CCCCC/C=C\\[C@@H]2C[C@@]2(C(=O)NS(=O)(=O)C2CC2)NC(=O)[C@@H]2C[C@@H](OC(=O)N3Cc4cccc(F)c4C3)CN2C1=O", 0.30],
  ["COc1ccc2c(O[C@@H]3C[C@H]4C(=O)N[C@]5(C(=O)NS(=O)(=O)C6CC6)C[C@H]5/C=C\\CCCCC[C@H](NC(=O)NCc5ccc6c(c5)B(O)OC6)C(=O)N4C3)cc(-c3nc(C(C)C)cs3)nc2c1C", 0.53]
]}
